- Test system: Tau-BiFC cells
- assay text: Cytotoxicity (cell survival rate) in tau-BiFC cells
- study conditions: group treated with Forskolin alone = 100%
- Experimental: In order to select new tau protein aggregation-inhibiting materials, tau-BiFC cell models, in which it is easy to observe the formation of tau oligomers in living cells, were used. […] After 48 hours, intracellular nuclei were stained using Hoechst (treatment concentration 2 μg/mL), and BiFC fluorescence intensity was automatically quantified using Operetta (PerkinElmer) to count stained nuclei in each well from the total well plates. […]
quantity: Cell survival rate (% @ 10 μM) (%)
Return type: number; implicit unit %.

Input line: Given the compound `N#CC(C#N)=NNc1ccc(-c2cnc3ccccc3n2)cc1` , what is its reported Cell survival rate (% @ 10 μM)?
Output line: 139.6

Input line: Do the same for `N#CC(C#N)=NNc1ccc(-c2ccccn2)cc1` please
Output line: 110.1

Input line: Do the same for `N#CC(C#N)=NNc1ccc2nc(NC(=O)c3cncnc3)sc2c1` please
Output line: 95.3

Input line: Do the same for `CCc1ccnc(-c2ccc(NN=C(C#N)C#N)cc2)n1` please
Output line: 147.1

Input line: Do the same for `N#CC(C#N)=NNc1ccc2[nH]ncc2c1` please
Output line: 204.7

Input line: Do the same for `Cn1ncc2cc(NN=C(C#N)C#N)ccc21` please
Output line: 96.8

Input line: Do the same for `N#CC(C#N)=NNc1ccc2nc(NC(=O)c3ccccc3O)sc2c1` please
Output line: 75.3

Input line: Do the same for `Cc1cnn(-c2ccc(NN=C(C#N)C#N)cc2)c1` please
Output line: 99.3

Input line: Do the same for `Cn1ccc2cc(NN=C(C#N)C#N)cnc21` please
Output line: 195.8

Input line: Do the same for `N#CC(C#N)=NNc1ccc2[nH]c(=O)sc2c1` please
Output line: 115.8
